Tested on: Plasmodium berghei
assay.remarks: Screen against P. berghei liver stage (PbLuc), transformed with Luciferase, at 10uM
Format: functional, HepG2
applied.conditions: tested at 10 uM
The whole screen tested about 69,000 compounds, of which about 8,600 (12%) showed an effect of 50% or more. The list comes from a sample in which strong results are over-represented; it also holds close analogues and randomly drawn compounds.
# binarize INHIBITION: threshold 50% inclusive, high side true, low side false

chem.smiles: COc1ccccc1CN1CC[C@H]2C[C@H](C(=O)N3CCCC3)O[C@H]2C1
class.label: true
//
chem.smiles: CC(C)n1c(=O)c2ccccc2n(CCN(C)C)c1=O
class.label: false
//
chem.smiles: Cc1ncccc1NC(=O)[C@H]1C[C@@H]2CCN(Cc3ccsc3)C[C@H]2O1
class.label: true

We now examine a further compound.
State whether the measured INHIBITION reaches 50%, counting equality as reaching it, for O=C([C@@H]1C[C@@H]2CCN(Cc3ccc4c(c3)OCO4)C[C@@H]2O1)N1CCCC1
false

* * *

Measured INHIBITION of individual entries
Test system: Plasmodium berghei
assay.remarks: Screen against P. berghei liver stage (PbLuc), transformed with Luciferase, at 10uM
Assay type: functional, HepG2
applied.conditions: tested at 10 uM
The whole screen tested about 69,000 compounds, of which about 8,600 (12%) showed an effect of 50% or more. This is one part of a sample in which strong results are shown more often than they occur.
Hi! Could you send only the number? It should be in %, unit omitted.

compound: Cc1ccccc1C(O)c1ccncc1 (stereo unspecified)
reported.result: 1.95

In one line, give reported INHIBITION of the entry O=C(Nc1ccc2c(c1)OCO2)N1CCN(CCc2ccccc2)CC1 .
60.9

In one line, give reported INHIBITION of the entry O=C(Nc1ccc2c(c1)OCO2)N1CCN(CCn2cccn2)CC1 .
42.8

In one line, give reported INHIBITION of the entry COCC(=O)N[C@@H]1CN(Cc2c[nH]nc2-c2cccs2)C[C@H]1O .
6.54

In one line, give reported INHIBITION of the entry O=C1[C@H]2CN(Cc3cccs3)C[C@H]2CN1CCN1CCCC1 .
9.97

In one line, give reported INHIBITION of the entry CCCN1CCCN(C(=O)Nc2ccc3c(c2)OCO3)CC1 .
-42.1

* * *

Measured INHIBITION of individual entries
Tested on: Plasmodium berghei
assay.remarks: Screen against P. berghei liver stage (PbLuc), transformed with Luciferase, at 10uM
Format: functional, HepG2
applied.conditions: tested at 10 uM
Hit rate of the full screen: of about 69,000 compounds, about 8,600 (12%) showed an effect of 50% or more. Only a selection was taken, and strong results are over-represented in it overall.
Hi! Could you send only the number? It should be in %, unit omitted.

Field: example entries. Status: answers known.
molecule: Cc1nc(C(=O)N2CCC(c3nnc(Cn4ccnc4)n3C)CC2)cs1
measured.target: Plasmodium berghei
uom: %
INHIBITION: -19.5
//
molecule: COCCN1CCC(Nc2ccc(C#N)cc2F)CC1
measured.target: Plasmodium berghei
uom: %
INHIBITION: 21.7
//
molecule: O=C(NC1CC1)[C@H]1C[C@@H]2CCN(CCc3ccccc3)C[C@H]2O1
measured.target: Plasmodium berghei
uom: %
INHIBITION: 44.4
//
molecule: O=S1(=O)c2ccccc2C(O)CN1CCO (configuration not stated)
measured.target: Plasmodium berghei
uom: %
INHIBITION: -5.77
//
molecule: O=C(NCCNC1CCCCC1)c1cccs1
measured.target: Plasmodium berghei
uom: %
INHIBITION: -2.11

In one line, give reported INHIBITION of the entry Cc1cc(C)c2ncc(C#N)c(N3CCS(=O)(=O)CC3)c2c1 .
36.3

In one line, give reported INHIBITION of the entry COc1ccc(COCC(O)CNC(=O)Cc2ccc(C)cc2)cc1 (configuration not stated) .
11.2

In one line, give reported INHIBITION of the entry Cc1cc(CN2C[C@@H]3CCCO[C@@H]3[C@H](NS(C)(=O)=O)C2)no1 .
-13

In one line, give reported INHIBITION of the entry CNC(=O)C1(Cc2cc(C(C)C)no2)CCN(Cc2ccccn2)C1 (configuration not stated) .
11.9

In one line, give reported INHIBITION of the entry COCC1COCCC12CCN(S(=O)(=O)c1ccccc1C)CC2 (configuration not stated) .
48.4

In one line, give reported INHIBITION of the entry Cc1cccc(C)c1Nc1noc2c1CN(C(=O)c1c[nH]nc1C)CC2 .
18.34

In one line, give reported INHIBITION of the entry COCC1CN(Cc2ccc(C)s2)Cc2nnn(C)c21 (configuration not stated) .
21.4

In one line, give reported INHIBITION of the entry O=C(NCc1cccnc1)N1CCc2ncnc(C3CC3)c2CC1 .
-14.3

In one line, give reported INHIBITION of the entry Cc1ccc2c(c1)CCCN2C(=O)c1cncc(Br)c1 .
6.88
